These measurements were taken from patent US20260356851A1.

Measured on: pERK1/2 (Thr202/Tyr204), NCI-1H441 (KRAS G12V) (Homo sapiens, UniProt P01116, G12V)
Construct: pERK1/2 HTRF read-out
Sequence (P01116 1-188 isoform P01116-2 G12V): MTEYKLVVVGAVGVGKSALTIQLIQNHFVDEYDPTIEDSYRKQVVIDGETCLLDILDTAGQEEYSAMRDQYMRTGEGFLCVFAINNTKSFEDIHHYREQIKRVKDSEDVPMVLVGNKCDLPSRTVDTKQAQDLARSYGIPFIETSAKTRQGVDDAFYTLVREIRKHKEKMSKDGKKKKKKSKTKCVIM
Experimental protocol: Assay of intracellular pERK1/2 (Thr202/Tyr204) phosphorylation in NCI-H441 cells (KRAS G12V)
Assay type: cell-based
Experimental parameters: pERK1/2, 2 days, read-out: NCI-H441 (KRAS G12V) IC50
Recorded IC50, one value per entry.
Readout: IC50

• Cc1cc2[nH]ncc2c(-c2nc3c4c(nc(OCC5(CN(C)C)CC5)nc4c2F)N(C(C)c2cccnc2N)CCO3)c1C (centres unmarked) = > 1000 nM
• CC(c1cccnc1N)N1CCOc2nc(-c3cc(N)cc(F)c3C(F)(F)F)c(F)c3nc(OC[C@@H]4C[C@@H](F)CN4C)nc1c23 (single isomer, unassigned) [Compound 93] = > 100 nM
• Cc1cc(N)cc(-c2nc3c4c(nc(N5CCC[C@H]5CO)nc4c2F)N(C(C)c2cccnc2N)CCO3)c1C(F)(F)F (single isomer, unassigned) = > 100 nM
• Cc1ccc(C(C)N2CCOc3nc(-c4cc(N)c(F)c(C)c4C(F)(F)F)c(F)c4nc(OC[C@@]56CCCN5C[C@H](F)C6)nc2c34)c(N)n1 (single isomer, unassigned) = > 100 nM
• COc1ccc(C(F)(F)F)cc1-c1nc2c3c(nc(OC[C@@]45CCCN4C[C@H](F)C5)nc3c1F)N(C(C)c1cccnc1N)CCO2 (some centres unmarked) = > 1000 nM
